In this section, each of the molecules is paired with its reported growth.
# Test system: KM12 colon
# assay.info: NCI-60 one-dose screen, 48 h (100 = growth as untreated, 0 = no growth, -100 = all killed)
# test.parameters: 10 µM unless noted
This is part of a sample that, as a whole, favours compounds with a hit. Of some 83,000 tested, about 20% had one in any assay. Calls of active or inactive are those of the source. The calls were made as follows: active = growth percent below 10; inactive = the rest.

// known answers, use as guide
molecule	growth
NC(=O)CN1C(=O)c2ccccc2C1=O	103% (inactive)
CC(=O)OCC1SC(OC(C)=O)C(NC(=O)/C=C/CCl)C(OC(C)=O)C1OC(C)=O (stereo not drawn)	102% (inactive)

(Q) For KM12 colon, give growth of the listed molecule: CCOC(=O)c1cnn(-c2nc(-c3ccc(F)cc3)c(C#N)c(N3CCOCC3)n2)c1N
(A) 105% (inactive)

(Q) For KM12 colon, give growth of the listed molecule: Nc1c(C(=O)Nc2ccccc2)sc2nc3c(cc12)CN(C(=O)OCc1ccccc1)CC3
(A) 39.1% (inactive)

(Q) For KM12 colon, give growth of the listed molecule: CCC1S/C(=N\N=C(/C)c2ccc[nH]2)N(c2ccccc2)C1=O (stereo not drawn)
(A) 112% (inactive)

(Q) For KM12 colon, give growth of the listed molecule: C=C(C)[C@@H]1CC[C@]2(C(=O)N3CCN(C)CC3)CC[C@]3(C)[C@H](CC[C@@H]4[C@@]5(C)C/C(=C/c6ccco6)C(=O)C(C)(C)[C@@H]5CC[C@]43C)[C@@H]12
(A) 72.5% (inactive)

(Q) For KM12 colon, give growth of the listed molecule: C=C1C(=O)O[C@H]2[C@H]1CC/C(COC(=O)CCC(=O)OC/C1=C/CC[C@@]3(C)O[C@H]3[C@H]3OC(=O)C(=C)[C@@H]3CC1)=C\CC[C@@]1(C)O[C@@H]21
(A) 85% (inactive)

(Q) For KM12 colon, give growth of the listed molecule: COc1cc(N=Nc2cc(S(=O)(=O)O)cc3cc(S(=O)(=O)O)cc(O)c23)c(C)cc1N=Nc1c(S(=O)(=O)O)cc2cc(Nc3ccccc3)ccc2c1O
(A) 102% (inactive)

(Q) For KM12 colon, give growth of the listed molecule: COc1ccc(-c2nc(C#N)c(NCC(c3ccco3)N3CCCC3)o2)cc1 (stereo not drawn)
(A) 33.8% (inactive)

(Q) For KM12 colon, give growth of the listed molecule: CCN(CC)c1ccc2c(c1)Oc1nc(N)c(C#N)c(N)c1C2Sc1ccc(OC)cc1 (stereo not drawn)
(A) -33% (active)

====

# Tested on: CCRF-CEM leukemia
# assay.info: NCI-60 one-dose screen, 48 h (100 = growth as untreated, 0 = no growth, -100 = all killed)
# test.parameters: 10 µM unless noted
Compounds without any hit were thinned out: in the full panel of roughly 83,000, 20% have a hit.
Response field label takes criterion met when growth is strictly below 60% and criterion not met in all other cases.

molecule	cat
O=C1c2ccccc2C(=O)c2c1oc1c2c(=O)[nH]c2ccc(Cl)cc21	criterion met
CCOC(=O)C1=C(C)n2nc(CC#N)c(C#N)c2NC1c1ccc(Cl)cc1 (configuration not stated)	criterion not met
CN(C)CCCn1c2c(c3cc(-c4ccco4)ccc3c1=O)C(=O)c1ccccc1-2	criterion met
O=C(Nc1cc(Nc2ncccc2-c2ncnc3nc[nH]c23)ccc1F)c1cc(C(F)(F)F)cc(C(F)(F)F)c1	criterion met
CC(=O)OCC1SC(OC(C)=O)C(NC(=O)/C=C/CCl)C(OC(C)=O)C1OC(C)=O (configuration not stated)	criterion not met

(Q) # strict comparison: is reported growth < 60%? input = S=C(Nc1ccc(Cl)cc1)c1ccccn1
(A) criterion not met

====

# Test system: 786-0 renal
# assay.info: NCI-60 one-dose screen, 48 h (100 = growth as untreated, 0 = no growth, -100 = all killed)
# test.parameters: 10 µM unless noted
The panel holds about 83,000 compounds, 20% with a hit somewhere; the sample as a whole holds those more often. Calls of active or inactive are those of the source. Rule for the calls: active = growth percent below 10; inactive = the rest.
readout.kind: growth

// known answers, use as guide
compound	assay.target	growth
O=C(CCCC(=O)Nc1ccc(-n2nnc3cc(Cl)c(Cl)cc32)cc1)Nc1ccc(-n2nnc3cc(Cl)c(Cl)cc32)cc1	786-0 renal	49.6% (inactive)
O=S(=O)(Nc1nccs1)c1ccc(Nc2nc(-c3ccncc3)cs2)cc1	786-0 renal	97.8% (inactive)
O=C1[C@@H](OS(=O)(=O)CC(F)(F)F)[C@H](c2ccc(F)cn2)N1c1cc2c3ccccc3ccc2c2ccccc12	786-0 renal	71.7% (inactive)
COc1cc(C2=N/C(=C\c3cc4ccccc4nc3Oc3ccccc3)C(=O)N2C(=N)N)cc(OC)c1OC	786-0 renal	28.6% (inactive)
CCCCOc1nc2ccc(C)cc2cc1/C=C/C(=O)/C=C/c1ccc2c(c1)OCO2	786-0 renal	97.9% (inactive)
CCC1S/C(=N\N=C(/C)c2ccc[nH]2)N(c2ccccc2)C1=O (centres undefined)	786-0 renal	117% (inactive)
O=C1c2ccccc2C(=O)c2c1oc1c2c(=O)[nH]c2ccccc21	786-0 renal	102% (inactive)
COc1cc(C2=NN(c3ccccc3)C(c3cccc(Nc4ccnc5cc(C(F)(F)F)ccc45)c3)C2)cc(OC)c1OC (centres undefined)	786-0 renal	101% (inactive)
COc1cc(C(=O)Nc2cc(O)c(C/C=C(\C)CCC=C(C)C)c(O)c2)cc2c1O[C@]1(C)CC[C@@H](O)C(C)(C)[C@H]1C2	786-0 renal	-6.12% (active)
C=C(C)[C@@H]1CC[C@]2(C(=O)OCCOCCOCC[P+](c3ccccc3)(c3ccccc3)c3ccccc3)CC[C@]3(C)[C@H](CC[C@@H]4[C@@]5(C)CC[C@H](OC(C)=O)C(C)(C)[C@@H]5CC[C@]43C)[C@@H]12	786-0 renal	-91.6% (active)

(Q) Tell me its growth given C#C[C@@]1(O)[C@@H](CO)O[C@@H](n2cc(Cl)c3c(N)ncnc32)[C@@H]1O as the entry.
(A) -58.8% (active)

(Q) Tell me its growth given COc1ccc2oc(=O)cc(-c3nc4ccc(N)cc4[nH]3)c2c1 as the entry.
(A) 96.8% (inactive)

(Q) Tell me its growth given COC(=O)/C=C1\SC(=Nc2ccc(C(F)(F)F)cc2)N(CCc2c[nH]c3ccccc23)C1=O as the entry.
(A) -74.1% (active)

(Q) Tell me its growth given Cc1ccc(C(=O)/C(=C/c2ccc([N+](=O)[O-])cc2)S(=O)Cc2ccccc2)cc1 (centres undefined) as the entry.
(A) -49.5% (active)

(Q) Tell me its growth given CC(=O)c1c(OCC#N)ccc2c(C)cc(=O)oc12 as the entry.
(A) 106% (inactive)

(Q) Tell me its growth given N#Cc1ccc(Oc2ccc3ccc(=O)oc3c2)cc1 as the entry.
(A) 95.5% (inactive)

(Q) Tell me its growth given CCCn1cc(/C=N\N=C2\C(=O)Nc3ccc(C)cc32)c2ccccc21 as the entry.
(A) 64.5% (inactive)

(Q) Tell me its growth given COc1ccc(N(C)c2nc(Cl)nc3ccn(C)c23)cc1 as the entry.
(A) 12.6% (inactive)

(Q) Tell me its growth given Clc1ccc2c(NCCCNC3CCCCC3)ccnc2c1 as the entry.
(A) 68.5% (inactive)

====

# Test system: A549/ATCC NSCLC
# assay.info: NCI-60 one-dose screen, 48 h (100 = growth as untreated, 0 = no growth, -100 = all killed)
# test.parameters: 10 µM unless noted
# Experimental: Growth inhibition of the A549/ATCC human Non-Small Cell Lung tumor cell line is measured as a screen for anti-cancer activity. Cells are grown in 96 well plates and exposed to the test compound for 48 hours. Compounds are tested at a single concentration, which is 10^-5 M for most compounds. The reported endpoint is percent growth (GI% or GIPRCNT), where numbers from 0 - 100% represent growth inhibition, and numbers from -100% - 0 represent cell death. […]
The panel holds about 83,000 compounds, 20% with a hit somewhere; the sample as a whole holds those more often.
In this section, each of the molecules is paired with its reported growth.
The answer is to be given in %; state only the numeric part.

molecule	readout.kind	scale.unit	measured.number
O=c1[nH]nc(-c2ccc(Br)cc2)c2sc(NC(=S)Nc3ccc(Cl)cc3)nc12	growth	%	102
COc1cc(C2=NN(c3ccccc3)C(c3cccc(Nc4ccnc5cc(C(F)(F)F)ccc45)c3)C2)cc(OC)c1OC (stereo not given)	growth	%	86.5
Cn1nc(C(F)(F)F)c(-c2cc(C(F)(F)F)cc(C(F)(F)F)c2)c1-c1ccc(OCc2ccc(Cl)cc2)cc1O	growth	%	10.5
NCCN1CCNCC1	growth	%	102

We now examine a further molecule.
(Q) Tell me its growth given COc1ccccc1N1CCN(CCCOc2ccc(C(=O)/C=C3/C(=O)Nc4ccccc43)cc2)CC1 as the entry.
(A) 76
